- assay summary: BRlogD chromatographic lipophilicity
- Format: physicochemical
- condition description: XBridge Shield RP18, pH 7.0, 60% acetonitrile
Reported BRlogD values follow for various compounds
observation type: BRlogD

compound: O=C1COc2ccc(cc2)Nc2ccnc(n2)Nc2cnn(c2)CCCN1 [Compound 6b]
observation type: BRlogD
readout number: -0.03
//
compound: Cc1ccc(C(=O)Nc2cccc(C(F)(F)F)c2)cc1-c1cc2nc(Nc3cnn(C)c3)ncc2[nH]1 [Compound 1]
observation type: BRlogD
readout number: 3.36
//
compound: Cn1cc2c3nc(ncc31)Nc1cnn(c1)CCCNC(=O)COc1ccc-2cc1 [Compound 5b]
observation type: BRlogD
readout number: 0.53
//
compound: c1cc2nc(n1)Nc1cnn(c1)CCCNCCOc1ccc(cc1)N2 [Compound 6a]
observation type: BRlogD
readout number: -0.29
//
compound: Cn1cc2c3nc(ncc31)Nc1cnn(c1)CCCNCCOc1ccc-2cc1 [Compound 5a]
observation type: BRlogD
readout number: 0.64

====

- assay summary: Caco-2 membrane permeability assay
- Assay type: in vitro ADME
- condition description: human, Caco-2, pH 7.4, Caco-2 Papp BA without Pgp inhibitor

compound: c1cc2nc(n1)Nc1cnn(c1)CCCNCCOc1ccc(cc1)N2 [Compound 6a]
measure unit: ×10⁻⁶ cm/s
Papp B→A at 2 h, 10 µM: 22
//
compound: Cn1cc2c3nc(ncc31)Nc1cnn(c1)CCCNCCOc1ccc-2cc1 [Compound 5a]
measure unit: ×10⁻⁶ cm/s
Papp B→A at 2 h, 10 µM: 24.2

====

In this section, each of the molecules is paired with its reported Δlog kW^IAM.
- assay summary: Δlog kW IAM polarity descriptor
- Format: physicochemical
- condition description: polarity in aqueous medium
observation type: Δlog kW^IAM

smiles input: Cc1ccc(C(=O)Nc2cccc(C(F)(F)F)c2)cc1-c1cc2nc(Nc3cnn(C)c3)ncc2[nH]1
readout number: 0.47
//
smiles input: Cn1cc2c3nc(ncc31)Nc1cnn(c1)CCCNCCOc1ccc-2cc1
readout number: 2.77
//
smiles input: O=C1COc2ccc(cc2)Nc2ccnc(n2)Nc2cnn(c2)CCCN1
readout number: 2.58
//
smiles input: Cn1cc2c3nc(ncc31)Nc1cnn(c1)CCCNC(=O)COc1ccc-2cc1
readout number: 2.41
//
smiles input: c1cc2nc(n1)Nc1cnn(c1)CCCNCCOc1ccc(cc1)N2
readout number: 3.26

====

Measured EPSA by item
- assay summary: EPSA polarity descriptor
- Format: physicochemical
- condition description: almost fully nonpolar environment; polarity in nonpolar environment

smiles input: Cc1ccc(C(=O)Nc2cccc(C(F)(F)F)c2)cc1-c1cc2nc(Nc3cnn(C)c3)ncc2[nH]1
EPSA: 106 A^2
--
smiles input: Cn1cc2c3nc(ncc31)Nc1cnn(c1)CCCNCCOc1ccc-2cc1
EPSA: 125 A^2
--
smiles input: O=C1COc2ccc(cc2)Nc2ccnc(n2)Nc2cnn(c2)CCCN1
EPSA: 108 A^2
--
smiles input: c1cc2nc(n1)Nc1cnn(c1)CCCNCCOc1ccc(cc1)N2
EPSA: 127 A^2
--
smiles input: Cn1cc2c3nc(ncc31)Nc1cnn(c1)CCCNC(=O)COc1ccc-2cc1
EPSA: 106 A^2

====

Here, each record is paired with measured Papp A→B at 2 h, 10 µM data.
- assay summary: Caco-2 membrane permeability assay
- Format: in vitro ADME
- condition description: human, Caco-2, pH 7.4, Caco-2 Papp AB without Pgp inhibitor

smiles input: c1cc2nc(n1)Nc1cnn(c1)CCCNCCOc1ccc(cc1)N2
Papp A→B at 2 h, 10 µM [×10⁻⁶ cm/s]: 1.9

smiles input: Cn1cc2c3nc(ncc31)Nc1cnn(c1)CCCNCCOc1ccc-2cc1
Papp A→B at 2 h, 10 µM [×10⁻⁶ cm/s]: 10.2
